system: Tov-21-G; experiment: Primary qHTS to identify gynecologic anti-cancer compounds using libraries of approved drugs and bioactive compounds (AID 1345084); conditions: Gynecologic cancer cell panel viability, ATPlite luminescence, 48 h; series mostly up to 57.5 µM; further: nearly all actives have a fitted effect of over 55% in size
Inconclusive results are not listed. Active and inactive are the calls of the source. The call rests on the fitted dose curve; in most records, active means well fitted cell-killing curve with a large enough effect; inconclusive means small, poorly fitted or top-dose-only effect, or effect the other way; inactive means flat fitted curve, though single readings scatter.
Give one outcome, nothing more. List: active, inactive

Use these answered entries as a reference point.
COc1cc(Br)c(Nc2nc(-c3c(C)nc4ncccn34)cs2)c(Br)c1    active
CN(c1ccccc1CNc1nc(Nc2ccc3c(c2)CC(=O)N3)ncc1C(F)(F)F)S(C)(=O)=O    inactive
CC(=O)CCC1=C(C)C(O[C@@H]2O[C@H](CO)[C@@H](O)[C@H](O)[C@H]2O)C(O)CC1(C)C (stereo partly drawn)    inactive
CC1(C)C=CN2C(=O)C3=CCCN3C(=O)[C@@H]2C[C@@]12Nc1ccccc1C2=O    inactive

For `Cc1c(NC(=O)c2cc(C(N)=O)nc3cc(F)ccc23)c(C(F)(F)F)nn1Cc1ccc(C#N)cc1` , what call appears in the results of this test?
inactive

Also check `O=C(CSc1nc2c(c(=O)n1-c1ccccc1)SCC2)Nc1ccc(-c2ccccc2)cn1`
active

And `Cc1ncc(CCCN(C)C)cc1Nc1ncc2c(n1)-c1ccc(C(F)(F)F)cc1NC(=S)C2` ?
inactive

Could you do the same for `COC(=O)c1ccccc1O[C@@H]1O[C@H](CO)[C@@H](O)[C@H](O)[C@H]1O[C@@H]1O[C@@H](C)[C@H](O)[C@@H](O)[C@H]1O` , please?
inactive
